Assay: NCI Yeast Anticancer Drug Screen. Data for the mlh1 rad18 strain (AID 175)
Settings: S. cerevisiae mlh1 rad18 strain growth inhibition; at 50.0 µM (retest, dose inferred, filed as 5.0)
About 79,000 compounds went through this panel and 15% of them were active in at least one assay; those are over-represented in the sample as a whole. Active and inactive are the calls of the source. Rule as the data show it: active = growth inhibition above about 70%; inactive = the rest.
Respond only with the outcome that fits, drawn from 1.0 = active, 0.0 = inactive

Solved entries (count: 5):
>>> group_label("O=C(Oc1ccc2c(c1)CN(Cc1ccccc1)CO2)c1ccccc1")
0.0
>>> group_label("Brc1ccccc1-c1ncc(-c2ccccc2)o1")
1.0
>>> group_label("O=C(CC(=O)n1nc(-c2ccccc2)c(N=Nc2ccc(Cl)cc2)c1-c1ccccc1)Nc1cccc(Cl)c1")
0.0
>>> group_label("N#CC1=C(N)N(/N=C/c2ccccc2)C(c2ccccc2)C1(C#N)C#N (centres undefined)")
1.0
>>> group_label("CC(=O)OCC(C)Cc1cc2c(cc1Br)OCO2 (centres undefined)")
1.0

Exercise: Record lookup: outcome of this test for `CN(C)N=Nc1ccccc1C(=O)NC#N` ?
Key: 1.0

Exercise: And for `CN(C)c1ccc(N=Nc2ccncc2)cc1` ?
Key: 0.0

Exercise: And for `CN(C)c1nc(=Nc2cccc(Cl)c2)ss1` ?
Key: 1.0
